- Tested On: Sushi domains (SD1/2) protein
- Test Description: Fluorescence polarization (FP) competition assay with AJAP-1probe, calculated Ki
- Format: binding
- Study Conditions: Table 5, elongation and truncation scan of AJAP-1 binding epitope; read-out: Ki (nM) mean ± SEM
Residues, ends and D or L forms follow the SMILES beside them.
Assay Readout: Ki (nM)
Numeric only. Scale: nM

Compound	Assay Readout	Recorded Number
CC[C@H](C)[C@H](NC(=O)[C@H](Cc1ccccc1)NC(=O)[C@H](CCC(=O)O)NC(=O)[C@@H](NC(=O)[C@H](CCC(=O)O)NC(=O)[C@@H](NC(C)=O)[C@@H](C)O)[C@@H](C)O)C(=O)N[C@@H](C)C(=O)N[C@@H](Cc1c[nH]c2ccccc12)C(=O)NCC(N)=O (Ac-TETEFIAWG-NH2)	Ki	2470
CC[C@H](C)[C@H](NC(=O)[C@H](Cc1ccccc1)NC(=O)[C@H](CCC(=O)O)NC(=O)[C@@H](NC(=O)[C@H](CCC(=O)O)NC(=O)[C@@H](NC(C)=O)[C@@H](C)O)[C@@H](C)O)C(=O)N[C@@H](C)C(=O)N[C@@H](Cc1c[nH]c2ccccc12)C(=O)NCC(=O)N1CCC[C@H]1C(=O)N[C@H](C(=O)NCC(=O)N[C@@H](CC(=O)O)C(=O)N[C@@H](CCC(=O)O)C(=O)N[C@@H](CC(=O)O)C(=O)N[C@@H](C)C(=O)N[C@@H](CC(C)C)C(N)=O)[C@@H](C)O (Ac-TETEFIAWGPTGDEDAL-NH2)	Ki	47

Let us move to another entry and its Ki.
# input Entry CC[C@H](C)[C@H](NC(=O)[C@H](Cc1ccccc1)NC(=O)[C@H](CCC(=O)O)NC(=O)[C@@H](NC(=O)[C@H](CCC(=O)O)NC(=O)[C@@H](NC(=O)[C@@H](NC(=O)[C@@H]1CCCN1C(=O)[C@H](CCCNC(=N)N)NC(C)=O)[C@@H](C)O)[C@@H](C)O)[C@@H](C)O)C(=O)N[C@@H](C)C(=O)N[C@@H](Cc1c[nH]c2ccccc12)C(=O)NCC(=O)N1CCC[C@H]1C(=O)N[C@H](C(=O)NCC(=O)N[C@@H](CC(=O)O)C(=O)N[C@@H](CCC(=O)O)C(=O)N[C@@H](CC(=O)O)C(N)=O)[C@@H](C)O has what Ki?
# output 58

Values from patent US20260193293A1
